Tested on: Escherichia coli TOP10
Assay: shrunken log2 fold change of peptide-encoding DNA abundance (4.5 h post-induction vs induction); higher = less antimicrobial activity (less host growth inhibition)
Conditions: time post-induction: 4.5 h; library: site-saturation at positions 5, 18, 19, 20
Assay endpoint: shrunken log2 fold change

Examples with answers:
Reported shrunken log2 fold change for RRIRRRPPRLPRPRPRPCETPRP : what is it?
0.0583

Reported shrunken log2 fold change for RRIRHRPPRLPRPRPRPMLPPRP : what is it?
-0.0141

Reported shrunken log2 fold change for RRIRYRPPRLPRPRPRPQLIPRP : what is it?
-0.3

Others:
Reported shrunken log2 fold change for RRIRRRPPRLPRPRPRPHDNPRP : what is it?
-0.13

---

Test system: Escherichia coli TOP10
Assay: shrunken log2 fold change of peptide-encoding DNA abundance (4.5 h post-induction vs induction); higher = less antimicrobial activity (less host growth inhibition)
Settings: time post-induction: 4.5 h; library: site-saturation at positions 5, 18, 19, 20
Assign criterion met whenever shrunken log2 fold change does not fall below -0.01; assign criterion not met whenever it does.

Decide: is the reported value of shrunken log2 fold change for RRIRLRPPRLPRPRPRPGQHPRP equal to or greater than -0.01?
criterion not met

Decide: is the reported value of shrunken log2 fold change for RRIRWRPPRLPRPRPRPFPTPRP equal to or greater than -0.01?
criterion not met

Decide: is the reported value of shrunken log2 fold change for RRIRDRPPRLPRPRPRPTWYPRP equal to or greater than -0.01?
criterion not met

Decide: is the reported value of shrunken log2 fold change for RRIRPRPPRLPRPRPRPIEKPRP equal to or greater than -0.01?
criterion met

Decide: is the reported value of shrunken log2 fold change for RRIRTRPPRLPRPRPRPHEVPRP equal to or greater than -0.01?
criterion met

---

System: Escherichia coli TOP10;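 further: peptides expressed intracellularly from a pBAD plasmid library in pooled LB shake-flask culture, induced with 0.3% L-arabinose, DNA abundance read by NGS, three biological replicates, DESeq2 with apeglm shrinkage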
Assay: shrunken log2 fold change of peptide-encoding DNA abundance (4.5 h post-induction vs induction); higher = less antimicrobial activity (less host growth inhibition)
Conditions: time post-induction: 4.5 h; library: site-saturation at positions 5, 18, 19, 20
Assay endpoint: shrunken log2 fold change
Enter a number only.

Enter reported shrunken log2 fold change observed with Escherichia coli TOP10 for RRIRIRPPRLPRPRPRPVIDPRP
-0.0443

Others:
Enter reported shrunken log2 fold change observed with Escherichia coli TOP10 for RRIRVRPPRLPRPRPRPTVYPRP
-0.0885

Enter reported shrunken log2 fold change observed with Escherichia coli TOP10 for RRIRLRPPRLPRPRPRPRHNPRP
-0.521

Enter reported shrunken log2 fold change observed with Escherichia coli TOP10 for RRIRSRPPRLPRPRPRPIFAPRP
0.192

Enter reported shrunken log2 fold change observed with Escherichia coli TOP10 for RRIRERPPRLPRPRPRPCFAPRP
0.0529

Enter reported shrunken log2 fold change observed with Escherichia coli TOP10 for RRIRYRPPRLPRPRPRPMQDPRP
-0.28

Enter reported shrunken log2 fold change observed with Escherichia coli TOP10 for RRIRDRPPRLPRPRPRPYNCPRP
-0.0352

Enter reported shrunken log2 fold change observed with Escherichia coli TOP10 for RRIRTRPPRLPRPRPRPVAIPRP
-0.168

Enter reported shrunken log2 fold change observed with Escherichia coli TOP10 for RRIRQRPPRLPRPRPRPPNEPRP
0.266

Enter reported shrunken log2 fold change observed with Escherichia coli TOP10 for RRIRPRPPRLPRPRPRPLTKPRP
0.0122

Enter reported shrunken log2 fold change observed with Escherichia coli TOP10 for RRIRYRPPRLPRPRPRPDGKPRP
-0.01

Enter reported shrunken log2 fold change observed with Escherichia coli TOP10 for RRIRDRPPRLPRPRPRPNENPRP
-0.177
